Reference for the values: ChEMBL document CHEMBL1131306

Listing of entries alongside the reported pIC50.
# Tested on: Human alphaherpesvirus 1
# methodDescription: Inhibitory concentration was evaluated against herpes simplex 1,strain patton.
# Type: functional, organism-based
pIC50: −log10 of the molar value.
observable: pIC50

smilesData	assayedTarget	relationalOperator	measurement
NS(=O)(=O)c1cccc(Nc2nc(Nc3cccc(S(N)(=O)=O)c3)nc(Nc3ccc(-c4ccc(Nc5nc(Nc6cccc(S(N)(=O)=O)c6)nc(Nc6cccc(S(N)(=O)=O)c6)n5)cc4S(=O)(=O)O)c(S(=O)(=O)O)c3)n2)c1	Human alphaherpesvirus 1	=	5.06
NC(=O)CCN(CCC(N)=O)S(=O)(=O)c1cccc(Nc2nc(Nc3cccc(S(=O)(=O)N(CCC(N)=O)CCC(N)=O)c3)nc(Nc3ccc(-c4ccc(Nc5nc(Nc6cccc(S(=O)(=O)N(CCC(N)=O)CCC(N)=O)c6)nc(Nc6cccc(S(=O)(=O)N(CCC(N)=O)CCC(N)=O)c6)n5)cc4CO)c(CO)c3)n2)c1	Human alphaherpesvirus 1	<	4.60
NC(=O)CCN(CCC(N)=O)S(=O)(=O)c1cccc(Nc2nc(Nc3cccc(S(=O)(=O)N(CCC(N)=O)CCC(N)=O)c3)nc(Nc3ccc(-c4ccc(Nc5nc(Nc6cccc(S(=O)(=O)N(CCC(N)=O)CCC(N)=O)c6)nc(Nc6cccc(S(=O)(=O)N(CCC(N)=O)CCC(N)=O)c6)n5)cc4S(=O)(=O)O)c(S(=O)(=O)O)c3)n2)c1	Human alphaherpesvirus 1	<	4.60
O=S(=O)(O)c1cc(Nc2nc(Nc3cccc(S(=O)(=O)N(CCO)CCO)c3)nc(Nc3cccc(S(=O)(=O)N(CCO)CCO)c3)n2)ccc1-c1ccc(Nc2nc(Nc3cccc(S(=O)(=O)N(CCO)CCO)c3)nc(Nc3cccc(S(=O)(=O)N(CCO)CCO)c3)n2)cc1S(=O)(=O)O	Human alphaherpesvirus 1	=	4.83

----------
# Test system: Human alphaherpesvirus 1
# methodDescription: Inhibitory concentration was evaluated against herpes simplex 1,strain patton.
# Format: functional, organism-based

smilesData	resultUnit	relationalOperator	IC50
NC(=O)CCNS(=O)(=O)c1cccc(Nc2nc(Nc3cccc(S(=O)(=O)NCCC(N)=O)c3)nc(Nc3ccc(-c4ccc(Nc5nc(Nc6cccc(S(=O)(=O)NCCC(N)=O)c6)nc(Nc6cccc(S(=O)(=O)NCCC(N)=O)c6)n5)cc4S(=O)(=O)O)c(S(=O)(=O)O)c3)n2)c1	µM	>	25
Cc1cc(-c2ccc(Nc3nc(Nc4cccc(S(=O)(=O)N(CCC(N)=O)CCC(N)=O)c4)nc(Nc4cccc(S(=O)(=O)N(CCC(N)=O)CCC(N)=O)c4)n3)c(C)c2)ccc1Nc1nc(Nc2cccc(S(=O)(=O)N(CCC(N)=O)CCC(N)=O)c2)nc(Nc2cccc(S(=O)(=O)N(CCC(N)=O)CCC(N)=O)c2)n1	µM	=	25
Cc1cc(-c2cc(C)c(Nc3nc(Nc4cccc(S(=O)(=O)N(CCC(N)=O)CCC(N)=O)c4)nc(Nc4cccc(S(=O)(=O)N(CCC(N)=O)CCC(N)=O)c4)n3)cc2S(=O)(=O)O)c(S(=O)(=O)O)cc1Nc1nc(Nc2cccc(S(=O)(=O)N(CCC(N)=O)CCC(N)=O)c2)nc(Nc2cccc(S(=O)(=O)N(CCC(N)=O)CCC(N)=O)c2)n1	µM	=	20
CCCN(CCC)S(=O)(=O)c1cccc(Nc2nc(Nc3cccc(S(=O)(=O)N(CCC)CCC)c3)nc(Nc3ccc(-c4ccc(Nc5nc(Nc6cccc(S(=O)(=O)N(CCC)CCC)c6)nc(Nc6cccc(S(=O)(=O)N(CCC)CCC)c6)n5)cc4S(=O)(=O)O)c(S(=O)(=O)O)c3)n2)c1	µM	>	25

----------
# Test system: Human alphaherpesvirus 1
# methodDescription: Inhibitory concentration was evaluated against herpes simplex 1,strain patton.
# Type: functional, organism-based
pIC50: −log10 of the molar value.

smilesData	pIC50
NC(=O)CCN(CCC(N)=O)S(=O)(=O)c1cccc(Nc2nc(Nc3cccc(S(=O)(=O)N(CCC(N)=O)CCC(N)=O)c3)nc(Nc3ccc(-c4ccc(Nc5nc(Nc6cccc(S(=O)(=O)N(CCC(N)=O)CCC(N)=O)c6)nc(Nc6cccc(S(=O)(=O)N(CCC(N)=O)CCC(N)=O)c6)n5)cc4C(=O)O)c(C(=O)O)c3)n2)c1	5.12
NC(=O)CCN(CCC(N)=O)S(=O)(=O)c1ccc(Nc2nc(Nc3ccc(S(=O)(=O)N(CCC(N)=O)CCC(N)=O)cc3)nc(Nc3ccc(-c4ccc(Nc5nc(Nc6ccc(S(=O)(=O)N(CCC(N)=O)CCC(N)=O)cc6)nc(Nc6ccc(S(=O)(=O)N(CCC(N)=O)CCC(N)=O)cc6)n5)cc4S(=O)(=O)O)c(S(=O)(=O)O)c3)n2)cc1	4.75
NC(=O)CCN(CCC(N)=O)S(=O)(=O)c1cccc(Nc2nc(Nc3cccc(S(=O)(=O)N(CCC(N)=O)CCC(N)=O)c3)nc(Nc3ccc(/C=C/c4ccc(Nc5nc(Nc6cccc(S(=O)(=O)N(CCC(N)=O)CCC(N)=O)c6)nc(Nc6cccc(S(=O)(=O)N(CCC(N)=O)CCC(N)=O)c6)n5)cc4S(=O)(=O)O)c(S(=O)(=O)O)c3)n2)c1	5.26
